- Tested on: Escherichia coli IAI1
- ASSAY_PROCEDURE: growth (OD595) fold change vs plate DMSO controls (fold change (ratio)); higher = more growth
- STUDY_CONDITIONS: incubation time: 27 h, anaerobic, 37 °C
Where a name gives a salt, the structure may show the parent alone.
Each entry below lists one item and its recorded growth value.
Provide a numeric answer; units are not to be included.

Solved entries (count: 5):
CN1CCOC(c2ccccc2)c2ccccc2C1 (stereo not drawn) [Nefopam hydrochloride] (20 µM)
1
N[C@@H](Cc1c[nH]c2ccccc12)C(=O)O [L-Tryptophan] (20 µM)
0.993
Cc1c(OCC(F)(F)F)ccnc1C[S+]([O-])c1nc2ccccc2[nH]1 (stereo not drawn) [Lansoprazole] (20 µM)
1.06
CN(C)C(=O)C(CCN1CCC(O)(c2ccc(Cl)cc2)CC1)(c1ccccc1)c1ccccc1 [Loperamide hydrochloride] (20 µM)
1.04
Cn1c(=O)c2c(ncn2CCO)n(C)c1=O [Etofylline] (20 µM)
1.01

Which growth is listed for CCN1CCC[C@H]1CNC(=O)c1c(O)c(Cl)cc(Cl)c1OC [Raclopride] (20 µM) ?
1.25

Which growth is listed for COc1cc2ncnc(Nc3ccc(F)c(Cl)c3)c2cc1OCCCN1CCOCC1 [Gefitinib] (20 µM) ?
1.04

Which growth is listed for CCCN(CCC)C(=O)C(CCC(=O)O)NC(=O)c1ccccc1 (stereo not drawn) [Proglumide] (20 µM) ?
1.36
